- measurement_target: human TRPC6 (Homo sapiens)
- measurement_protocol: TRPC6 calcium flux assay (FLIPR, OAG-stimulated calcium influx)
- test_context: HEK293 cells stably transfected with human TRPC6, read-out: hTRPC6 Potency
Counter-ions that a name gives are not always drawn.
What pIC50 was measured for each of the following?
Answers are plain numbers, as −log10 of the molar value.

{"compound": "N[C@@H]1CN(c2nc3cc(C(F)(F)F)ccc3n2CC(=O)N2CCOCC2)CC[C@@H]1F [Example 478]", "pIC50": 5.98}

Batch request: pIC50 for each of the following compounds.
1. CS(=O)(=O)CC1CCN(C(=O)Cn2c(N3CC[C@@H](F)[C@H](N)C3)nc3cc(F)c(F)cc32)C1 (stereo partly drawn) [Example 645]
2. N#CCOc1ccc(Cn2c(N3CCC[C@@H](N)C3)nc3ccccc32)cc1 [Example 384]

Ans:
1: 5.64; 2: 4.80

For each of the compounds below, note its pIC50.
1. N[C@@H]1CN(c2nc3cc(F)c(F)cc3n2CC(=O)N2CCC(OC(F)F)C2)CC[C@H]1F (stereo partly drawn) [Example 626]
2. CC1(CN)CCN(c2nc3ccccc3n2Cc2ccc(C#N)cc2)C1 (racemic) [Example 164]
3. N#Cc1ccc(Cn2c(N3CC[C@@H](F)[C@H](N)C3)nc3cc(Cl)c(Cl)cc32)nc1 [Example 43]

Ans:
1: 6.93; 2: 6.60; 3: 9.24

Please go through the list and note pIC50 for each compound.
1. N#Cc1ccc(Cn2c(N3CCC(F)(F)[C@H](N)C3)nc3c(F)cc(F)cc32)nc1 [Example 87, hydrochloride]
2. N[C@@H]1CN(c2nc3cc(F)c(F)cc3n2CC(=O)N2CCCCC2)CC[C@H]1F [Example 281]

Ans:
1. 9.03
2. 7.57

Here are 3 compounds. What values of pIC50 were reported for them?
1. N#Cc1ccc(Cn2c(N3CC[C@H](F)[C@H](N)C3)nc3cc(C#N)ccc32)nc1 [Example 69]
2. N#Cc1ccc(Cn2c(N3CC[C@H](F)[C@H](N)C3)nc3c(Cl)cccc32)cc1 [Example 409]
3. N[C@@H]1CCCN(c2nc3ccccc3n2Cc2ccc(C(F)F)cc2)C1 [Example 381]

Ans:
7.83
8.98
5.25

For every listed record, write down its pIC50.
1. N[C@@H]1CN(c2nc3cc(F)c(F)cc3n2Cc2ccc(Cl)cn2)CC[C@H]1F [Example 227, hydrochloride]
2. CN(CC(F)(F)F)C(=O)Cn1c(N2CCCC3(CCCN3)C2)nc2ccc(F)cc21 (stereo not drawn) [Example 472]
3. COc1ccc(Cn2c(N3CC[C@@H](F)[C@H](N)C3)nc3ccccc32)nc1 [Example 425]
4. Cc1nnc(Cn2c(N3CC[C@@H](F)[C@H](N)C3)nc3ncc(F)cc32)s1 [Example 574]
5. C[C@@H](c1ccc(C#N)cn1)n1c(N2CC[C@H]3OCCN[C@@H]3C2)nc2c(F)cc(F)cc21 [Example 270]

Ans:
[9.48, 6.42, 6.95, 6.82, 7.29]

---

- measurement_target: human TRPC6 (Homo sapiens, UniProt Q9Y210)
- Sequence (Q9Y210 whole entry): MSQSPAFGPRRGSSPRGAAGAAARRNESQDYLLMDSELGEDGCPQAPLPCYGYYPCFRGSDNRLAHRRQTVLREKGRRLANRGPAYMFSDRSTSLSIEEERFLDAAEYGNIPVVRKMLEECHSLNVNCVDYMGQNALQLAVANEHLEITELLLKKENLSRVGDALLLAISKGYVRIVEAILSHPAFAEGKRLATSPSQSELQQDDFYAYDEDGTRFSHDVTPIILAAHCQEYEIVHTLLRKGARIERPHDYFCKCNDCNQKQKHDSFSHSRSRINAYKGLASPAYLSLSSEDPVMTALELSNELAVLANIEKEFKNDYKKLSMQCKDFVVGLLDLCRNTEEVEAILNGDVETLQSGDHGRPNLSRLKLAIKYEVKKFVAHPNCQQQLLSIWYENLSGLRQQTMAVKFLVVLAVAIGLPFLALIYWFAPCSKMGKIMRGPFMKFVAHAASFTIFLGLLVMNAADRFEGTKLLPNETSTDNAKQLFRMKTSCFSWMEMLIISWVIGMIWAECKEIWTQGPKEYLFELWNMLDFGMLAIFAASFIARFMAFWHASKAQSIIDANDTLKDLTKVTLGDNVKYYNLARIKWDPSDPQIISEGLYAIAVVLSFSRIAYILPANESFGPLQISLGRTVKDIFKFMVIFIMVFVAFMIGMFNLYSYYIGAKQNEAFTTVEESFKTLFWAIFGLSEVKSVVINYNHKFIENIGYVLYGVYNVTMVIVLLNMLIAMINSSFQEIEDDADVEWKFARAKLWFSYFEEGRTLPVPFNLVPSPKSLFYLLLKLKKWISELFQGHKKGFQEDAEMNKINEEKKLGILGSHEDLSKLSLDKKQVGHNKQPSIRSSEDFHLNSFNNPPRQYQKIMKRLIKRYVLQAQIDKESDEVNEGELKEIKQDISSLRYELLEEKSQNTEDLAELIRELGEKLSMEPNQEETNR
- measurement_protocol: TRPC6 calcium flux assay (FLIPR, OAG-stimulated calcium influx)
- test_context: HEK293 cells stably transfected with human TRPC6, read-out: hTRPC6 Potency
Counter-ions that a name gives are not always drawn.
Can you tell me pIC50 for the items I'm about to list?
One number for each entry, as −log10 of the molar value.

Guide cases for pIC50, answers given:
{"molecule": "N#Cc1ccc(Cn2c(N3CC[C@H](O)[C@@H](N)C3)nc3ccccc32)nc1", "pIC50": 6.87}
{"molecule": "N#Cc1ccc(Cn2c(N3CCC(F)(F)[C@H](N)C3)nc3ccc(Cl)cc32)cc1", "pIC50": 9.15}

Give pIC50 for each listed item.
1. N[C@@H]1CN(c2nc3cc(F)c(F)cc3n2CC(=O)N2CCC(O)CC2)CC[C@H]1F
2. N#Cc1ccc2c(c1)CC[C@H]2n1c(N2CC[C@@H](F)[C@H](N)C2)nc2ccccc21 [Example 231, hydrochloride]
3. COc1ccc2nc(N3CCC[C@H](N)C3)n(Cc3ccc(C#N)cc3)c2c1 [Example 402, hydrochloride]
4. C[C@H](c1ccc(Cl)cc1Cl)n1c(N2CC[C@@H](F)[C@H](N)C2)nc2cc(F)c(F)cc21
5. C[C@H](c1ccc(C#N)cn1)n1c(N2CC[C@@H](F)[C@H](N)C2)nc2ccc(C#N)cc21 [Example 223, hydrochloride]

Ans:
[6.09, 6.13, 8.88, 5.84, 7.29]
